# Tested on: OVCAR-5
# PROTOCOL DETAILS: NCI tumour cell line growth inhibition, 48 h
Active and inactive are the calls of the source. No stated cut-off is given here; in the data, active = GI50 up to about 1.1 µM and inactive = higher.
MEASURED ATTRIBUTE: GI50

Worked examples follow.
| COMPOUND | GI50 |
| --- | --- |
| CSc1nc(C)cc(=O)n1C1OC(COC(C)=O)C(OC(C)=O)C(OC(C)=O)C1OC(C)=O (stereo unspecified) | > 100 µM (inactive) |
| C1=CC2SSSC2C1 (stereo unspecified) | > 100 µM (inactive) |
| O=S(=O)(/N=C(\NO)Nc1ccc(Cl)cc1)c1cccc2nsnc12 | 26.9 µM (inactive) |
| COc1ccc(CCN(C)C2CCC(C#N)(c3ccc(OC)c(OC)c3)CC2)cc1OC (stereo unspecified) | > 100 µM (inactive) |
| Cc1nn(-c2ccccc2)c(S)c1C(=O)c1ccccc1 | 62.2 µM (inactive) |

Req: I would be grateful if you could share the reported GI50 for `O=C(O)c1nc2ccc(C(F)(F)F)cc2nc1Nc1ccc(Cl)c(Cl)c1` .
Resp: 14.4 µM (inactive)

Req: Dear colleague, I am looking for the recorded GI50 of the following compound: `C[C@]12CC=CC(=O)[C@@]1(C)CCC(=O)C2`
Resp: > 100 µM (inactive)

Req: Value lookup for GI50; key = Cc1ccccc1C1SCc2nc3ccccc3n21 (stereo unspecified)
Resp: 3.38 µM (inactive)

Req: Please look up its GI50: Cc1cccc(N2C(=O)C3c4[nH]c5ccccc5c4C4CCC(C(C)(C)C)CC4C3C2=O)c1C (stereo unspecified)
Resp: > 100 µM (inactive)

Req: So what does the record say about GI50 for `NC(=O)N/N=C1\C[C@H]2CCCC[C@H]2C1` ?
Resp: > 100 µM (inactive)

###

The following compounds are shown together with reported GI50 values.
# Test system: SK-MEL-28
# PROTOCOL DETAILS: NCI tumour cell line growth inhibition, 48 h
Calls of active or inactive are those of the source. Rule as the data show it: active = GI50 up to about 1.1 µM and inactive = higher.

The following compounds have reported results that may help.
| COMPOUND | GI50 |
| --- | --- |
| CC12CCCC(C(=O)O)(C1)[C@H](C(C)(C)C(=O)O)CC2 (stereo partly specified) | > 100 µM (inactive) |
| C1=CC2SSSC2C1 (stereo unspecified) | > 100 µM (inactive) |
| COc1ccc2c(N=[N+]=[N-])c(-c3ccccc3)c(=O)oc2c1 | > 100 µM (inactive) |
| c1cc(CSP234N5CCN2CCN3CCN4CC5)cc(CSP234N5CCN2CCN3CCN4CC5)c1 | 18.8 µM (inactive) |
| C/C(=N\NC(=[Se])N1CCN(c2ccccn2)CC1)c1ccccn1 | 10 µM (inactive) |

Then there is this compound:
Req: Any idea what its GI50 is? The compound is `C/C(=N/NC(=O)c1ccncc1)C(F)(F)F`
Resp: > 100 µM (inactive)

###

# Tested on: TK-10
# PROTOCOL DETAILS: NCI tumour cell line growth inhibition, 48 h
Calls of active or inactive are those of the source. Rule as the data show it: active = GI50 up to about 1.1 µM and inactive = higher.
MEASURED ATTRIBUTE: GI50

Study these solved cases before continuing.
| COMPOUND | GI50 |
| --- | --- |
| Fc1ccc(C2NC(=S)NC3=C2CCOc2c3ccc3ccccc23)cc1 (stereo not given) | 44.9 µM (inactive) |
| Cc1cccc(N2C(=O)C3c4[nH]c5ccccc5c4C4CCC(C(C)(C)C)CC4C3C2=O)c1C (stereo not given) | > 100 µM (inactive) |
| O=C(O)c1ccccc1-c1ccccc1C(=O)c1ccccc1 | > 100 µM (inactive) |
| Cc1nc(N)c(N2CCN([N+](=O)[O-])CC2)c(O)n1 | > 100 µM (inactive) |
| C#CCCOC(=O)c1ccccc1OC(C)=O | > 100 µM (inactive) |

Req: Quick check: GI50 of `O=C(Nc1cccc(-c2cn3ccccc3n2)c1)c1ccncc1` ?
Resp: 56.9 µM (inactive)

Req: Quick check: GI50 of `COc1cc2c(c(OC)c1OC)C(=O)[C@H](Br)[C@H]2NC(=O)NCCCl` ?
Resp: > 100 µM (inactive)

Req: Fill in the blank: the reported GI50 of `CCN(CC)CCC(=O)N1C/C(=C/c2ccccc2)C(=O)/C(=C\c2ccccc2)C1` is ____.
Resp: 6.58 µM (inactive)

Req: Request the reported GI50 associated with CC1=NNC(=O)C1C1CC(c2c[nH]c3ccccc23)=NN=C1Cl (stereo not given)
Resp: > 100 µM (inactive)

Req: Tell me the measured GI50 of CCCC(=O)NC(Nc1ccc(S(=O)(=O)Nc2cc(C)on2)cc1)(C(=O)OCC)C(F)(F)F (stereo not given) , please.
Resp: > 100 µM (inactive)

###

Quick list: GI50 per entry.
# System: MCF7
# PROTOCOL DETAILS: NCI tumour cell line growth inhibition, 48 h
Calls of active or inactive are those of the source. Cut-off read from the data, not from the text of the source: active = GI50 up to about 1.1 µM and inactive = higher.

| MOLECULE | READING |
| --- | --- |
| COc1cc(C=C2C(=O)NC(=S)NC2=O)cc(OC)c1OC | > 100 µM (inactive) |
| NC(Cc1ccccc1CP(=O)(O)O)C(=O)O (stereo unspecified) | > 100 µM (inactive) |
| COc1ccc(-c2c3c(nc4nc(SCC(=O)c5ccc(Br)cc5)nc(N)c24)CCCC3)cc1OC | > 100 µM (inactive) |
| CCOC(=O)/C(C#N)=C\c1ccc(N(CCC(=O)O)CCC(=O)O)c(I)c1 | > 10 µM (inactive) |
| CCOC(=O)C1(C(=O)OCC)OC(C)=NC1(C(=O)OC)C(=O)OC | > 61.5 µM (inactive) |

Now for the molecule whose GI50 we want.
Req: Entry `CN(C)CCOc1ccc([N+](=O)[O-])c2cccnc12` , system MCF7: what GI50 was measured?
Resp: > 100 µM (inactive)

###

# Tested on: TK-10
# PROTOCOL DETAILS: NCI tumour cell line growth inhibition, 48 h
Active and inactive are the calls of the source. Cut-off read from the data, not from the text of the source: active = GI50 up to about 1.1 µM and inactive = higher. Where a SMILES comes first, the peptide text is derived from it. The star is where a group is joined. Cbz = O=C(OCc1ccccc1)*
Hi there, use one of these labels in your reply, thanks! active, inactive

| MOLECULE | MEASURED ON | CLASS NAME |
| --- | --- | --- |
| CC(CCC#N)(CCC#N)C(=O)CC(O)(C(F)(F)F)C(F)(F)F | TK-10 | inactive |

Req: Assay outcome for `CCOP(=O)(OCC)/C(=C\N1C(=O)CC(=O)NC1=S)C(=O)OC` : what was it?
Resp: inactive

Req: Dear colleague, could you share the recorded outcome for CCOc1ccc(NCC2CC/C(=C\c3ccc(Cl)cc3)C2=O)cc1 (configuration not stated) when you have a moment?
Resp: inactive

Req: How did this test come out for `Cc1c(O)c(=O)ccn1CCc1ccc(O)cc1` ?
Resp: inactive

Req: What classification did CCOC(=O)CNC(=O)C(C)NC(=O)C(NC(=O)OCc1ccccc1)C(C)C (stereo not drawn) (Cbz-Val-Ala-Gly-OEt; configuration not given here) end up with in this test?
Resp: inactive

Req: Recorded test outcome, item `CN1/C(=N\c2ccccc2)S/C1=N/c1ccccc1`
Resp: inactive

Req: What classification did COc1ccc(CC[N+]2(C)COc3cc4oc(=O)cc(C)c4cc3C2)cc1OC (configuration not stated) end up with in this test?
Resp: inactive

Req: Hello, I am checking results. What call was entered for `CSC1=N/C(=C\c2ccccc2)C(=O)N1CN1CCOCC1` ?
Resp: inactive

Req: # outcome recorded in this test, key = NC(Cc1ccccc1CP(=O)(O)O)C(=O)O (configuration not stated)
Resp: inactive

Req: Can you look up the reported call for `O=c1oc2ccccc2c(-c2ccc(O)cc2)c1Oc1ccc(Cl)cc1` for me?
Resp: inactive

Req: Look up the recorded call for `CCOC(=O)C(=O)CC(=O)C1=C(c2ccccc2OC)CC(c2cccs2)=CC1=O` in this test.
Resp: inactive

Req: Which outcome was assigned to `O=c1/c(=C/c2ccc3c(c2)OCO3)sc2nnc(-c3ccco3)n12` in this test?
Resp: inactive

Req: Which outcome did this test record for the molecule `CCCCCCc1cc2cc(C(=O)Nc3cccc(C(F)(F)F)c3)c(=N)oc2cc1O` ?
Resp: inactive

###

# Tested on: UACC-257
# PROTOCOL DETAILS: NCI tumour cell line growth inhibition, 48 h
Active and inactive are the calls of the source. No stated cut-off is given here; in the data, active = GI50 up to about 1.1 µM and inactive = higher.
MEASURED ATTRIBUTE: GI50

Sample records with GI50:
| COMPOUND | READING |
| --- | --- |
| O=c1cc(NNCc2ccccc2)[nH]c(=O)[nH]1 | > 100 µM (inactive) |
| Cc1ccc(OCCn2cc(Nc3ccccc3)c(=O)[nH]c2=O)cc1 | > 100 µM (inactive) |
| O=C1CCC2(c3ccc(F)cc3)Nc3ccccc3N12 (stereo unspecified) | > 100 µM (inactive) |
| Cc1ccc(F)c2[nH]c(-c3ccccc3)cc(=O)c12 | 58.5 µM (inactive) |
| CCOC(=O)N1CCC2(CC1)CC(=O)N(Nc1ccccc1)C2=O | > 100 µM (inactive) |
| COc1ccc(CCN(C)C2CCC(C#N)(c3ccc(OC)c(OC)c3)CC2)cc1OC (stereo unspecified) | > 100 µM (inactive) |

Req: I am curious: what GI50 value has been reported for COc1c2ccoc2cc2oc(=O)ccc12 [BERGAPTEN] ?
Resp: > 100 µM (inactive)

Req: Quick check: GI50 of `c1ccc2c(c1)ccc1nc(-c3ccc4c(c3)OCO4)c3c(c12)CCCC3` ?
Resp: 30.1 µM (inactive)

Req: // returns reported GI50 for input `CCCCCCc1cc2cc(C(=O)Nc3cccc(C(F)(F)F)c3)c(=N)oc2cc1O`
Resp: 2.44 µM (inactive)

Req: Entry `Cc1ccc(O)c(C(=O)/C=C/c2ccccc2)c1` : reported GI50 = ?
Resp: > 100 µM (inactive)

Req: Dear colleague, I am looking for the recorded GI50 of the following compound: `CN(C)CCSc1cc(-c2ccccc2)c2ccccc2n1`
Resp: 10.4 µM (inactive)

# credit: ChEMBL document CHEMBL1201862
